Quick reference: Extraction Ratio (ER) of the listed items.
System: human hepatocytes
Assay: Hepatocytes stability assay (human hepatocytes)
Type: in vitro ADME
Details: human hepatocytes; scaled hepatic clearance divided by liver blood flow (well-stirred model, fu assumed unity)
Would you mind answering with just the numeric figure?

# MOLECULE, RESULT NUMBER
measured = [
    ("O=C1COc2ccccc2C2CCC(CC2)OC[C@H]2[C@@H](NS(=O)(=O)CF)CCCN12 (stereo in doubt)", 0.73),
    ("O=S(=O)(N[C@H]1CCCN2CCOc3ccccc3[C@H]3CC[C@H](CC3)OCC12)C1CC1 (stereo in doubt)", 0.86),
]

## Task For CC(C)S(=O)(=O)N[C@H]1CCCN2CCOc3ccccc3[C@H]3CC[C@H](CC3)OCC12 (stereo in doubt) , what is its reported Extraction Ratio (ER)?
## Result 0.90

## Task Same read-out for CC(C)S(=O)(=O)N[C@H]1CCN2C(=O)COc3c(F)cc(F)cc3[C@H]3CC[C@H](CC3)OC[C@@H]12 ?
## Result 0.70

## Task Same read-out for O=C1COc2nnccc2[C@H]2CC[C@H](CC2)OCC2[C@@H](NS(=O)(=O)C3CC3)CCCN12 (stereo in doubt) ?
## Result 0.27

## Task Same read-out for Cc1ccc2c(c1)C1CCC(CC1)OC[C@H]1[C@@H](NS(C)(=O)=O)CCCN1C(=O)CO2 (stereo in doubt) ?
## Result 0.53

###

System: Sprague-Dawley rats
Assay: Assessment of wake promotion in Sprague-Dawley rats (EEG/EMG)
Format: in vivo, rat
Conditions: male Sprague-Dawley rats; PO; 3 mpk; dosed at ZT5; 6-hour post-dose period
Quick reference: Mean cortical activation time (% vehicle treatment) of the listed items.
Respond with the bare value in % vehicle treatment.

# COMPOUND, RESULT NUMBER
data = [
    ("CC(C)S(=O)(=O)N[C@H]1CCCN2C(=O)COc3ncccc3C3CCC(CC3)OC[C@@H]12 (stereo in doubt)", 107.59),
    ("Cc1ccnc2c1C1CCC(CC1)OC[C@H]1[C@@H](NS(=O)(=O)C(C)C)CCCN1C(=O)CO2 (stereo in doubt)", 82.61),
    ("O=C1COc2ccccc2[C@H]2CC[C@H](CC2)OCC2[C@@H](NS(=O)(=O)C(F)(F)F)CCN12 (stereo in doubt)", 265.17),
    ("O=C1COc2ccccc2C2CCC(CC2)OC[C@H]2[C@@H](NS(=O)(=O)C(F)(F)F)CCCN12 (stereo in doubt)", 411.43),
]

## Task Provide the documented Mean cortical activation time (% vehicle treatment) with Sprague-Dawley rats as the system for CC(C)S(=O)(=O)N[C@H]1CCN2C(=O)COc3c(F)cc(F)cc3[C@H]3CC[C@H](CC3)OC[C@@H]12
## Result 214.61

## Task Same read-out for Cc1cccc2c1[C@H]1CC[C@H](CC1)OC[C@H]1[C@@H](NS(C)(=O)=O)CCN1C(=O)CO2 ?
## Result 154.26

###

Test system: MDR1
Test: MDCK-MDR1 permeability assay
Format: in vitro ADME
Details: dog, MDCK-MDR1, MDCK-MDR1 cells; test compound 3 μM; 2 hours at 37 degrees C; apical to basolateral
ENDPOINT: Papp A→B at 2 h, 3 μM (×10⁻⁶ cm/s)
Respond with the bare value in ×10⁻⁶ cm/s.

# annotated cases, reported Papp A→B at 2 h, 3 μM shown
# COMPOUND, UNIT ABBREV, Papp A→B at 2 h, 3 μM
measured = [
    ("C=CS(=O)(=O)N[C@H]1CCCN2C(=O)COc3ccccc3C3CCC(CC3)OC[C@@H]12 (stereo in doubt)", "×10⁻⁶ cm/s", 1.3),
    ("O=S(=O)(CC1CCC1)N[C@H]1CCCN2CCOc3ccccc3[C@H]3CC[C@H](CC3)OCC12 (stereo in doubt)", "×10⁻⁶ cm/s", 0.23),
    ("CC(C)S(=O)(=O)N[C@H]1CCCN2C(=O)COc3nccnc3[C@H]3CC[C@H](CC3)OCC12 (stereo in doubt)", "×10⁻⁶ cm/s", 0.22),
    ("Cc1cccc2c1C1CCC(CC1)OC[C@H]1[C@@H](NS(C)(=O)=O)CCCN1C(=O)CO2 (stereo in doubt)", "×10⁻⁶ cm/s", 0.69),
    ("Cc1ccc2c(c1)[C@H]1CC[C@H](CC1)OCC1[C@@H](NS(C)(=O)=O)CCCN1CCO2 (stereo in doubt)", "×10⁻⁶ cm/s", 5.2),
]

Now examine the next entry.
## Task For Cc1ccc2c(c1C)[C@H]1CC[C@H](CC1)OCC1[C@@H](NS(=O)(=O)C(C)C)CCCN1C(=O)CO2 (stereo in doubt) , what is its reported Papp A→B at 2 h, 3 μM?
## Result 0.57

###

Quick reference: efflux ratio at 2 h, 3 μM of the listed items.
Test system: MDR1
Experiment: MDCK-MDR1 permeability assay
Format: in vitro ADME
Conditions: dog, MDCK-MDR1, MDCK-MDR1 cells; Papp B→A divided by Papp A→B; 3 μM; 2 hours; read-out: Efflux ratio (ER)

# COMPOUND, RESULT
measured = [
    ("O=C1COc2ccccc2C2CCC(CC2)OC[C@H]2[C@@H](NS(=O)(=O)C(F)F)CCCN12 (stereo in doubt) [Compound 7]", 22),
]

## Task For CC(C)S(=O)(=O)N[C@H]1CCCN2CCOc3ncccc3[C@H]3CC[C@H](CC3)OCC12 (stereo in doubt) [Compound 64] , what is its reported efflux ratio at 2 h, 3 μM?
## Result 1.2

## Task Same read-out for O=C1COc2ccccc2[C@H]2CC[C@H](CC2)OCC2[C@@H](NS(=O)(=O)C3CCOC3)CCCN12 (stereo in doubt) [Compound 22] ?
## Result > 100

## Task Same read-out for O=C1COc2ccccc2[C@H]2CC[C@H](CC2)OCC2[C@@H](NS(=O)(=O)CF)CCCN12 (stereo in doubt) [Compound 38] ?
## Result 35

## Task Same read-out for Cc1ccnc2c1C1CCC(CC1)OC[C@H]1[C@@H](NS(=O)(=O)C(C)C)CCCN1C(=O)CO2 (stereo in doubt) [Compound 10] ?
## Result > 100

## Task Same read-out for Cc1ccnc2c1[C@H]1CC[C@H](CC1)OCC1[C@@H](NS(=O)(=O)C3CCOC3)CCCN1C(=O)CO2 (stereo in doubt) [Compound 89] ?
## Result 49

## Task Same read-out for CS(=O)(=O)N[C@H]1CCCN2C(=O)COc3ccccc3[C@H]3CC[C@@H](OCC12)[C@H](O)C3 (stereo in doubt) [Compound 45] ?
## Result > 5.3

## Task Same read-out for Cc1c(Cl)ccc2c1[C@H]1CC[C@H](CC1)OCC1[C@@H](NS(=O)(=O)C(C)C)CCCN1C(=O)CO2 (stereo in doubt) [Compound 28] ?
## Result 92

## Task Same read-out for O=C1COc2ncccc2[C@H]2CC[C@H](CC2)OCC2[C@@H](NS(=O)(=O)C(F)(F)F)CCCN12 (stereo in doubt) [Compound 91] ?
## Result 47

## Task Same read-out for Cc1ccc2c(c1)C1CCC(CC1)OC[C@H]1[C@@H](NS(=O)(=O)C(C)C)CCCN1C(=O)CO2 (stereo in doubt) [Compound 18] ?
## Result 19

###

System: MDR1
Test: MDCK-MDR1 permeability assay
Assay type: in vitro ADME
Conditions: dog, MDCK-MDR1, MDCK-MDR1 cells; test compound 3 μM; 2 hours at 37 degrees C; apical to basolateral
ENDPOINT: Papp A→B at 2 h, 3 μM (×10⁻⁶ cm/s)
Respond with the bare value in ×10⁻⁶ cm/s.

# annotated cases, reported Papp A→B at 2 h, 3 μM shown
# MOLECULE, UNIT ABBREV, Papp A→B at 2 h, 3 μM
records = [
    ("C[C@@H]1CCN2C(=O)COc3ccccc3[C@H]3CC[C@H](CC3)OCC2[C@H]1NS(C)(=O)=O (mixture of isomers)", "×10⁻⁶ cm/s", 0.3),
    ("Cc1cccc2c1[C@H]1CC[C@H](CC1)OCC1[C@@H](NS(=O)(=O)C3CC3)CCN1C(=O)CO2 (stereo in doubt)", "×10⁻⁶ cm/s", 3.7),
    ("O=C1COc2ncncc2[C@H]2CC[C@H](CC2)OCC2[C@@H](NS(=O)(=O)C3CC3)CCCN12 (stereo in doubt)", "×10⁻⁶ cm/s", 0.42),
    ("CC(C)S(=O)(=O)N[C@H]1CCCN2C(=O)COc3ncc(Cl)cc3[C@H]3CC[C@H](CC3)OCC12 (stereo in doubt)", "×10⁻⁶ cm/s", 0.35),
    ("C[C@H](C(F)(F)F)S(=O)(=O)N[C@H]1CCCN2C(=O)COc3ccccc3C3CCC(CC3)OC[C@@H]12 (stereo in doubt)", "×10⁻⁶ cm/s", 0.44),
]

Now examine the next entry.
## Task For CC1(S(=O)(=O)N[C@H]2CCCN3C(=O)COc4ccccc4C4CCC(CC4)OC[C@@H]23)CC1 (stereo in doubt) , what is its reported Papp A→B at 2 h, 3 μM?
## Result 1.8

Numbers sourced from patent US12006330B2.
